tested target: Metabotropic glutamate receptor 8 (Rattus norvegicus)
experiment summary: mGluR8 Gi/Go-coupled signaling modulation – cell-based, rat, thallium flux, HTS, primary screen (AID 488969)
measurement conditions: HEK293 rat mGluR8, GIRK (G protein-gated inwardly rectifying potassium channel) thallium flux, FluoZin2; at 10 µM; stronger effect = higher value; submaximal glutamate (EC20) added with thallium
The full ranking holds about 110,000 compounds; the median of “z-score” is about -0.1, and the highest 2% start at about 2. The list comes from a sample in which the highest values are over-represented; it also holds close analogues and randomly drawn compounds.
// reported z-score for each item listed

[
  {
    "compound": "CCn1c2ccccc2c2cc(/C=N/n3cn[nH]c3=S)ccc21",
    "z-score": 11.5
  },
  {
    "compound": "CCSc1nnc(-c2cc3c(s2)-c2ccccc2CC3)o1",
    "z-score": 0.000914
  },
  {
    "compound": "CCOc1ccc(C(=O)Nc2cc(=O)n(C)c(=O)n2C)cc1",
    "z-score": -0.395
  },
  {
    "compound": "CC(CC(=O)Nc1ccncc1)c1ccccc1 (stereo unspecified)",
    "z-score": 0.044
  },
  {
    "compound": "S=c1[nH]nc(-c2cc3c(s2)-c2ccccc2CC3)o1",
    "z-score": 16.3
  },
  {
    "compound": "C=CCNC(=O)CC(=O)N/N=C/c1ccc(F)cc1",
    "z-score": -0.18
  }
]

The measurements presented in this section are drawn from PubChem BioAssay AID488969.
